Test system: Encephalomyocarditis virus
Assay: Antiviral activity against Encephalomyocarditis virus infected in CF-1 mouse assessed as host survival time ratio at 50 mg/kg, po administered via gavage at 28, 22, 2 hrs before and 2 hrs after virus inoculation
Type: functional
Label label 1 when Ratio < 1; otherwise label 0.

{"compound": "CC(C)N(CCOc1ccc2oc3ccc(OCCN(C(C)C)C(C)C)cc3c2c1)C(C)C", "group": "label 1"}
{"compound": "CCn1c2ccc(OCCN3CCOCC3)cc2c2cc(OCCN3CCOCC3)ccc21", "group": "label 1"}
{"compound": "CC(COc1ccc2sc3ccc(OCC(C)CN(C)C)cc3c2c1)CN(C)C.Cl (stereo not drawn)", "group": "label 0"}
{"compound": "CCn1c2ccc(C(=O)CCCN3CCCCC3)cc2c2cc(C(=O)CCCN3CCCCC3)ccc21.Cl", "group": "label 0"}
{"compound": "O=C(CCCN1CCCCC1)c1ccc2oc3ccc(C(=O)CCCN4CCCCC4)cc3c2c1", "group": "label 0"}
{"compound": "CC1CCN(CCCC(=O)c2ccc3sc4ccc(C(=O)CCCN5CCC(C)CC5)cc4c3c2)CC1", "group": "label 0"}
{"compound": "CCN(CC)CCCOC(=O)c1ccc2[nH]c3ccc(C(=O)OCCCN(CC)CC)cc3c2c1.Cl", "group": "label 0"}
{"compound": "CN(C)CCCOC(=O)c1ccc2oc3ccc(C(=O)OCCCN(C)C)cc3c2c1.Cl", "group": "label 0"}
{"compound": "O=C(CCCN1CCCCC1)c1ccc2sc3ccc(C(=O)CCCN4CCCCC4)cc3c2c1", "group": "label 0"}
{"compound": "CC(C)N(CCOc1ccc2sc3ccc(OCCN(C(C)C)C(C)C)cc3c2c1)C(C)C.Cl", "group": "label 0"}
{"compound": "CN(C)CC(=O)c1ccc2sc3ccc(C(=O)CN(C)C)cc3c2c1.Cl", "group": "label 0"}
{"compound": "CN(C)CCCOc1ccc2oc3ccc(OCCCN(C)C)cc3c2c1.Cl", "group": "label 1"}
{"compound": "CCn1c2ccc(C(=O)CCCN(C)C)cc2c2cc(C(=O)CCCN(C)C)ccc21.O=C(O)/C=C/C(=O)O", "group": "label 1"}
{"compound": "Cl.O=C(OCCCN1CCCCC1)c1ccc2oc3ccc(C(=O)OCCCN4CCCCC4)cc3c2c1", "group": "label 1"}
{"compound": "Cl.O=C(CCCN1CCC(Cc2ccccc2)CC1)c1ccc2oc3ccc(C(=O)CCCN4CCC(Cc5ccccc5)CC4)cc3c2c1", "group": "label 0"}
{"compound": "CC(COc1ccc2oc3ccc(OCC(C)CN(C)C)cc3c2c1)CN(C)C.Cl (stereo not drawn)", "group": "label 1"}
{"compound": "CCN(CC)CCOc1ccc2oc3ccc(OCCN(CC)CC)cc3c2c1.Cl", "group": "label 0"}
{"compound": "O=C(CCCN1CCCCC1)c1ccc2[nH]c3ccc(C(=O)CCCN4CCCCC4)cc3c2c1", "group": "label 1"}
{"compound": "CCCCN(CCCC)CCCOc1ccc2sc3ccc(OCCCN(CCCC)CCCC)cc3c2c1.Cl", "group": "label 1"}

* * *

System: Encephalomyocarditis virus
Assay: Antiviral activity against Encephalomyocarditis virus infected in CF-1 mouse assessed as host survival time ratio at 50 mg/kg, po administered via gavage at 28, 22, 2 hrs before and 2 hrs after virus inoculation
Type: functional
Listing of entries alongside the reported Ratio.

{"compound": "CCN(CC)CCOc1ccc2sc3ccc(OCCN(CC)CC)cc3c2c1.O=C(O)/C=C/C(=O)O", "Ratio": 0.88}
{"compound": "CC(CN(C)C)Oc1ccc2oc3ccc(OC(C)CN(C)C)cc3c2c1.O=C(O)CC(O)(CC(=O)O)C(=O)O (configuration not stated)", "Ratio": 0.84}
{"compound": "O=C(CCCN1CCOCC1)c1ccc2oc3ccc(C(=O)CCCN4CCOCC4)cc3c2c1", "Ratio": 1.08}
{"compound": "CCn1c2ccc(OCCN3CCCCC3)cc2c2cc(OCCN3CCCCC3)ccc21.Cl", "Ratio": 1.09}
{"compound": "CN(C)CCCC(=O)c1ccc2sc3ccc(C(=O)CCCN(C)C)cc3c2c1.Cl", "Ratio": 1}
{"compound": "CCN(CC)CCCOc1ccc2oc3ccc(OCCCN(CC)CC)cc3c2c1", "Ratio": 0.98}
{"compound": "CCCCN(CCCC)CCCOC(=O)c1ccc2sc3ccc(C(=O)OCCCN(CCCC)CCCC)cc3c2c1.Cl", "Ratio": 0.93}
{"compound": "CCn1c2ccc(OCCCN(C)C)cc2c2cc(OCCCN(C)C)ccc21.Cl", "Ratio": 0.9}
{"compound": "CCN(CC)CC(=O)c1ccc2oc3ccc(C(=O)CN(CC)CC)cc3c2c1.Cl", "Ratio": 0.96}
{"compound": "CC1CCN(CCCC(=O)c2ccc3oc4ccc(C(=O)CCCN5CCC(C)CC5)cc4c3c2)CC1", "Ratio": 1.11}
{"compound": "CCN(CC)CCOc1ccc2c(c1)c1cc(OCCN(CC)CC)ccc1n2CC.Cl", "Ratio": 0.87}
{"compound": "Cl.O=C(CN1CCCCC1)c1ccc2oc3ccc(C(=O)CN4CCCCC4)cc3c2c1", "Ratio": 0.87}
{"compound": "CC1CCCN(COC(=O)c2ccc3oc4ccc(C(=O)OCN5CCCC(C)C5)cc4c3c2)C1.Cl (configuration not stated)", "Ratio": 1.03}
{"compound": "O=C(CCCN1CCCCC1)c1ccc2c(c1)sc1ccc(C(=O)CCCN3CCCCC3)cc12", "Ratio": 1.1}
{"compound": "Cl.c1cc2oc3ccc(OCCCN4CCCCC4)cc3c2cc1OCCCN1CCCCC1", "Ratio": 1.02}
{"compound": "Cl.c1cc2oc3ccc(OCCN4CCCC4)cc3c2cc1OCCN1CCCC1", "Ratio": 0.98}
{"compound": "Cl.O=C(CCCN1CCOCC1)c1ccc2c(c1)sc1ccc(C(=O)CCCN3CCOCC3)cc12", "Ratio": 0.9}

All figures here come from ChEMBL document CHEMBL3272338.
